- ASSAY PROCEDURE: in vivo
- MEASUREMENT SETUP: rat, plasma, po
Outcome label depends on AUC relative to 400 ng·h/mL: at/above gives class 1, below gives class 0.

- COMPOUND: "CC(C)c1nc(CN(C)C(=O)NC(C(=O)N[C@@H](Cc2ccccc2)C[C@H](O)[C@H](Cc2ccccc2)NC(=O)OCc2ccno2)C(C)C)co1 (stereo partly drawn)"
  ANSWER LABEL: "class 0"

*Q* In plain terms: is recorded AUC at least 400 ng·h/mL for CCN(Cc1csc(C(C)C)n1)C(=O)NC(C(=O)N[C@@H](Cc1ccccc1)C[C@H](O)[C@H](Cc1ccccc1)NC(=O)OCc1cncs1)C(C)C (stereo partly drawn) ?
*A* class 1

*Q* Could you verify whether the entry CC(NC(=O)N(Cc1csc(C(C)C)n1)C1CC1)C(=O)N[C@@H](Cc1ccccc1)C[C@H](O)[C@H](Cc1ccccc1)NC(=O)OCc1cncs1 (stereo partly drawn) shows AUC of no less than 400 ng·h/mL?
*A* class 1

*Q* Check if AUC >= 400 ng·h/mL (inclusive). Item: CC(C)c1ncc(COC(=O)NC(C(=O)N[C@@H](Cc2ccccc2)[C@@H](O)C[C@H](Cc2ccccc2)NC(=O)OCc2cccnc2)C(C)C)s1 (stereo partly drawn)
*A* class 0

*Q* Exam item: decide whether the reported AUC for CC(C)C(NC(=O)N(C)Cc1cscn1)C(=O)N[C@@H](Cc1ccccc1)C[C@H](O)[C@H](Cc1ccccc1)NC(=O)OCc1cccnc1 (stereo partly drawn) is at least 400 ng·h/mL.
*A* class 0

*Q* Item CC(NC(=O)N(C)Cc1coc(C(C)C)n1)C(=O)N[C@@H](Cc1ccccc1)C[C@H](O)[C@H](Cc1ccccc1)NC(=O)OCc1cncs1 (stereo partly drawn) with AUC of 400 ng·h/mL or above?
*A* class 1

====

- ASSAY PROCEDURE: in vivo
- MEASUREMENT SETUP: rat, plasma, po
Measured Tmax by item
Respond with the bare value in min.

- COMPOUND: "CCc1cccc(CN(C)C(=O)NC(C(=O)N[C@@H](Cc2ccccc2)[C@@H](O)C[C@H](Cc2ccccc2)NC(=O)OCc2cccnc2)C(C)C)n1 (stereo partly drawn)"
  Tmax, min: 9
- COMPOUND: "Cc1cccc(COC(=O)NC(C(=O)N[C@@H](Cc2ccccc2)C[C@H](O)[C@H](Cc2ccccc2)NC(=O)OCc2ccoc2)C(C)C)n1 (stereo partly drawn)"
  Tmax, min: 8.4
- COMPOUND: "CC(C)C(NC(=O)N(C)Cc1ccccn1)C(=O)N[C@@H](Cc1ccccc1)C[C@H](O)[C@H](Cc1ccccc1)NC(=O)OCc1cncnc1 (stereo partly drawn)"
  Tmax, min: 18
- COMPOUND: "COCc1ncc(COC(=O)NC(C(=O)N[C@@H](Cc2ccccc2)[C@@H](O)C[C@H](Cc2ccccc2)NC(=O)OCc2cccnc2)C(C)C)s1 (stereo partly drawn)"
  Tmax, min: 9

// moving on: another record for Tmax
*Q* What value of measured Tmax is listed for CCc1ncc(COC(=O)NC(C(=O)N[C@@H](Cc2ccccc2)[C@@H](O)C[C@H](Cc2ccccc2)NC(=O)OCc2cccnc2)C(C)C)s1 (stereo partly drawn) ?
*A* 16.8

====

- ASSAY PROCEDURE: Oral bioavailability in rat
- Format: ADME, organism-based
- MEASUREMENT SETUP: in vivo
Measured bioavailability values are reported for all entries that follow.
Expressed in %, but write only the number.

- MOLECULE: "CCc1nc(CN(C)C(=O)NC(C(=O)N[C@@H](Cc2ccccc2)[C@@H](O)C[C@H](Cc2ccccc2)NC(=O)OCc2cccnc2)C(C)C)cs1 (stereo partly specified)"
  NUMERIC READOUT: 20
- MOLECULE: "Cc1cccc(COC(=O)NC(C(=O)N[C@@H](Cc2ccccc2)C[C@H](O)[C@H](Cc2ccccc2)NC(=O)OCc2cccnc2)C(C)C)n1 (stereo partly specified)"
  NUMERIC READOUT: 16

As a next step, examine the molecule that follows.
*Q* Give its bioavailability value. Item: CC(C)c1nc(CCC(=O)NC(C(=O)N[C@@H](Cc2ccccc2)[C@@H](O)C[C@H](Cc2ccccc2)NC(=O)OCc2cccnc2)C(C)C)cs1 (stereo partly specified)
*A* 9
